Reported values of GI50 for individual entries
System: UACC-62
assayNotes: NCI tumour cell line growth inhibition, 48 h
Activity calls are given as the source filed them. No stated cut-off is given here; in the data, active = GI50 up to about 1.1 µM and inactive = higher.
attributeMeasured: GI50

| molecule | experimentalValue |
| --- | --- |
| CCS/C(=N\c1ccccc1)SC | > 100 µM (inactive) |
| O=C(O)C(Br)Cc1ccc2c(c1)OCO2 (centres undefined) | 62.1 µM (inactive) |
| O=C1C=C(Nc2ccc(Br)cc2)c2ccccc2/C1=N/O | 1.73 µM (inactive) |
| CC1=C(CO)C(=O)O[C@@H]([C@@H](C)[C@H]2CC[C@H]3[C@@H]4C[C@H]5O[C@]56[C@@H](O)C=CC(=O)[C@]6(C)[C@H]4CC[C@]23C)C1 | 1.45 µM (inactive) |
| CCCC(Sc1ccccc1)P(=O)(c1ccccc1)c1ccccc1 (centres undefined) | 15.1 µM (inactive) |
| Cc1ccc(C)c(NC(=O)CC/C(=N\NC(=O)C(=O)NN)C(C)C(=O)c2ccc(O)cc2)c1 (centres undefined) | > 100 µM (inactive) |
| CCOC(=O)C(NC(=O)c1ccccc1)(N1CCOCC1)C(F)(F)F (centres undefined) | > 100 µM (inactive) |
| C=C1C(=O)C=C2C=C3C(=O)C(C)(C)C[C@]3(O)C12C (some centres undefined) | 8.39 µM (inactive) |
| C1=C[C@@H]2c3ccc4cnccc4c3NC[C@@H]2C1 | 58.2 µM (inactive) |
| O=C1NCN(c2ccccc2)C12CCN(CCc1ccc3[nH]c(=S)[nH]c3c1)CC2 | 64.9 µM (inactive) |
| COC1=C(C)C(=O)C2=C(C1=O)[C@@H]1[C@@H]3Cc4c(OC(=O)CO)c(C)c(OC)c(O)c4[C@H](CNC(=O)C(C)=O)N3[C@@H](C#N)[C@H](C2)N1C | < 0.0208 µM (active) |
| O=C(/C=C/c1ccsc1)c1ccc(Cl)cc1 | 41.6 µM (inactive) |
| CCC1CCC2CCCC(C)N12 (centres undefined) | > 100 µM (inactive) |
| CCN(CC)C(=O)Cn1c2c(c3ccccc31)CCCC2 | 99.8 µM (inactive) |
| N#Cc1c(Cl)cc(C#N)n2c1nc1ccccc12 | 18.3 µM (inactive) |
| COC(=O)C[S+]([O-])c1ccccc1 (centres undefined) | 29.2 µM (inactive) |
| O=C1CSC2(CC(/C=C/c3ccccc3[N+](=O)[O-])=NN2c2cccc(S(=O)(=O)O)c2)N1c1nc2ccccc2s1 (centres undefined) | 13.6 µM (inactive) |
| CCN(CC)CC(O)C1CCC(c2ccccc2)CC1 (centres undefined) | 15.6 µM (inactive) |
| C=Cc1c(C)c(O)cc2c1-c1ccc(O)c(C)c1CC2 | 7.5 µM (inactive) |
